test: HDN33 neuroblastoma growth inhibition, cell-based, chromothripsis tumors, cisplatin or BGB combos (AID 1671450); settings: HDN33 neuroblastoma cells, single agent, at 5 µM, stronger effect = higher value;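 further: cells exposed to compound for four days; 0% = vehicle DMSO and 100% = cell killing by high DMSO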
Would you kindly list inhibition for each of these molecules?
Give bare numbers, in %.

Provide inhibition for all items below, preserving their order.
1. CCc1c2c(nc3ccc(O)cc13)-c1cc3c(c(=O)n1C2)COC(=O)[C@]3(O)CC
2. O=c1[nH]c(-c2ccc(C(F)(F)F)cc2)nc2c1CSCC2
3. CO[C@H]1/C=C/O[C@@]2(C)Oc3c(C)c(O)c4c(O)c(c(C=NN5CCN(C)CC5)c(O)c4c3C2=O)NC(=O)/C(C)=C\C=C\[C@H](C)[C@H](O)[C@@H](C)[C@@H](O)[C@@H](C)[C@H](OC(C)=O)[C@@H]1C
4. CC(C)N=c1cc2n(-c3ccc(Cl)cc3)c3ccccc3nc-2cc1Nc1ccc(Cl)cc1
5. Cc1c(-c2cnccn2)ssc1=S

1. 96.3
2. 38.9
3. 0.074
4. -25
5. -46.9

---

experiment: hESC survival regulators, cell-based (AID 493140); details: human embryonic stem cell survival screen; stronger effect = higher value;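 further: cells exposed to compounds for four days before counting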
If the reported survival equals or exceeds 20, assign condition met. If not, assign condition not met.

Example entries begin here.
CC(C)(C)NC(=O)[C@@H]1C[C@@H]2CCCC[C@@H]2CN1C[C@@H](O)[C@H](Cc1ccccc1)NC(=O)[C@H](CC(N)=O)NC(=O)c1ccc2ccccc2n1    condition met
O=Nc1c(-c2c(O)[nH]c3ccccc23)[nH]c2ccccc12    condition met

Item CC(=O)N1CCN(c2ccc(OC[C@H]3CO[C@](Cn4ccnc4)(c4ccc(Cl)cc4Cl)O3)cc2)CC1 with survival of 20 or above?
condition not met

Again, but for Cc1c(C)c2c(c(C)c1O)CCC(C)(C(=O)O)O2 (configuration not stated)
condition not met

Again, but for N#C/C(=C\c1ccc(O)c(O)c1)C(=O)NCc1ccccc1
condition met

Again, but for COc1cc(/C=C(\C#N)C(N)=O)cc(CSc2nc3ccccc3s2)c1O
condition met

---

Would you kindly list fold change for each of these compounds?
assay: sensitizers of A549 cells to miR-34 induction, primary screen, imaging, A549 dox-inducible miR-34, nuclei and caspase counts (AID 1347080); conditions: A549 miR-34 inducible, Hoechst nuclei count, 48 h; measured here: relative caspase fold change +Dox/-Dox
One number for each entry.

O=C1N=C(O)CN1N=Cc1ccc(-c2ccc([N+](=O)[O-])cc2)o1    1.68

Provide fold change for all items below, preserving their order.
1. CCNC1CN(CCCOC)S(=O)(=O)c2sc(S(N)(=O)=O)cc21 (stereo not given)
2. C[C@@H]1CC2C3CCC4=CC(=O)C=C[C@]4(C)[C@@]3(F)[C@@H](O)C[C@]2(C)[C@@]1(O)C(=O)CO (stereo not given in full)
3. COc1nccc(-c2c(-c3ccc(F)cc3)ncn2C2CCC(O)CC2)n1 (stereo not given)
4. CC(=O)[C@H]1CCC2C3CC=C4C[C@@H](OC(=O)CCC(=O)O)CC[C@]4(C)C3CC[C@@]21C (stereo not given in full)

[0.647, 2.2, 0.79, 0.914]

Provide fold change for all items below, preserving their order.
1. CC[C@@H]1OC(=O)C[C@@H](O)[C@H](C)[C@@H](O[C@@H]2O[C@H](C)[C@@H](O)[C@H](N(C)C)[C@H]2O)[C@@H](CCN2C[C@H](C)C[C@H](C)C2)C[C@@H](C)C(=O)/C=C/C(C)=C\[C@@H]1CO[C@@H]1O[C@H](C)[C@@H](O)[C@@H](OC)[C@H]1OC
2. O=C1SCN(Cc2ccccc2)CN1Cc1ccccc1
3. CC(COc1ccccc1Cc1ccccc1)N1CCCCC1 (stereo not given)
4. O=C(O)CCCCC1SCC2NC(=O)NC21 (stereo not given)
5. CC(C)(CO)C(O)C(=O)NCCCO (stereo not given)

1. 3.65
2. 0.637
3. 2.34
4. 3.76
5. 4.72

Cited source for all entries: PubChem BioAssay
